- EXPERIMENTAL TARGET: Glucocorticoid receptor (Homo sapiens) (UniProt P04150)
- Sequence (P04150 whole entry, looked up): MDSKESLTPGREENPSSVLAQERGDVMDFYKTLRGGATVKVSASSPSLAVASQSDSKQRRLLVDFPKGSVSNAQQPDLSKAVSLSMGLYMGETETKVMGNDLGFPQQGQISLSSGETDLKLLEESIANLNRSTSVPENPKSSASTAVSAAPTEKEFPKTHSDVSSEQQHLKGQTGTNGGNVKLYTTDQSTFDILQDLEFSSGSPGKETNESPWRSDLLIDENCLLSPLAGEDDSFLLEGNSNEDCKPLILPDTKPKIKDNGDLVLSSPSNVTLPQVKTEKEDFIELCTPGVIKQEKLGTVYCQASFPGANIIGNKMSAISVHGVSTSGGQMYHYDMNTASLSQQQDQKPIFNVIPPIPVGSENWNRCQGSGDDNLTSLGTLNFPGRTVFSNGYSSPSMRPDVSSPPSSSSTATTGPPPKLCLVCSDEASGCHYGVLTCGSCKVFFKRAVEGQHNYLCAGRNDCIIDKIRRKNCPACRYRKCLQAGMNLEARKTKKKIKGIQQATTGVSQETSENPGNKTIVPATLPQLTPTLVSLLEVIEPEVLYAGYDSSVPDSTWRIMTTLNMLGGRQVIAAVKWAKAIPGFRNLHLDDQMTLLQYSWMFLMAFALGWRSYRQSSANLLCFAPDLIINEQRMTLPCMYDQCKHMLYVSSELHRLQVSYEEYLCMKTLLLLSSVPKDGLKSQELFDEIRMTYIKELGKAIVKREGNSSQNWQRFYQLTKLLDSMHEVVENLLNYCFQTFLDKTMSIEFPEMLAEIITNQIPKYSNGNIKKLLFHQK
- EXPERIMENT NOTES: qHTS assay to identify small molecule antagonists of the glucocorticoid receptor (GR) signaling pathway (AID 720692); also: % is scaled to controls: 0 for no effect and ±100 for the full control effect
- APPLIED CONDITIONS: GR-bla HeLa, beta-lactamase FRET ratio, dexamethasone-stimulated, 18 h; series mostly up to 58.5 µM
Inconclusive results are not listed. Active and inactive are the calls of the source. Calls follow the shape of the dose curve; as a rule, active = well fitted inhibition curve with a large enough effect in the signal ratio in the repeat runs (not every such curve was filed as active); inconclusive = weak or mixed curves, or effect the other way; inactive = no such curve, though single readings can be large or run the other way; the % refers to the signal ratio.
Respond with a class label; see 1 (active), -1 (inactive)

CN(C)CCCSc1ccccc1NC(=O)/C=C/c1ccccc1
-1

With those in mind, consider the next compound.
Please state the recorded outcome for this compound: "O=C(O)COc1nn(Cc2ccccc2)c2ccccc12"
-1

---

- EXPERIMENT NOTES: A CellTox Green Cytotoxicity Assay to monitor cytotoxicity in HepG2 cells - 16 hour (AID 1224876); also: % is scaled to controls: 0 for no effect and ±100 for the full control effect; nearly all actives have a fitted effect of over 45% in size
- APPLIED CONDITIONS: CellTox Green fluorescence; series mostly up to 76.8 µM
Records with an inconclusive call do not appear. Activity calls are given as the source filed them. The call rests on the fitted dose curve; in most records, active means well fitted activation curve with a large enough effect in the repeat runs; inconclusive means weak or mixed curves; inactive means flat fitted curve, though single readings scatter.
QUANTITY KIND: cytotoxicity increase

Nc1nc2c(ncn2COC(CO)CO)c(=O)[nH]1
inactive
CCC(C)S (centres undefined)
0.507% [at 2.72 µM] (inactive)
O=C1NC(=O)[C@@]2(CCOc3ccc(F)cc32)N1
inactive
NCCCNCCSP(=O)(O)O
-2.65% [at 6.97 µM] (inactive)
OC[C@]1(O)OC[C@@H](O)[C@H](O)[C@@H]1O
inactive

Tell me its cytotoxicity increase given "N=C(N)c1ccc2cc(OC(=O)c3ccc(N=C(N)N)cc3)ccc2c1" as the entry.
inactive

Tell me its cytotoxicity increase given "Nc1ccc(S(=O)(=O)Nc2ccnn2-c2ccccc2)cc1" as the entry.
2.84% [at 15.8 µM] (inactive)

Tell me its cytotoxicity increase given CO[Si](CCCOCC1CO1)(OC)OC (centres undefined) as the entry.
inactive

Tell me its cytotoxicity increase given "CC(C)(c1ccc(O)cc1)c1ccc(O)cc1" as the entry.
inactive

Tell me its cytotoxicity increase given "CCOC(=O)CCC(C)=O" as the entry.
inactive

Tell me its cytotoxicity increase given "C=CCOCC(CC)(CO)COCC=C" as the entry.
inactive

Tell me its cytotoxicity increase given "C1OCOCO1" as the entry.
inactive

Tell me its cytotoxicity increase given "Brc1c(NC2=NCCN2)ccc2nccnc12" as the entry.
inactive

Tell me its cytotoxicity increase given Nc1c2c(nc3ccccc13)CCCC2O (centres undefined) as the entry.
inactive

---

- EXPERIMENTAL TARGET: Nuclear receptor subfamily 1 group I member 2 (Homo sapiens) (UniProt O75469)
- Sequence (O75469 whole entry, looked up): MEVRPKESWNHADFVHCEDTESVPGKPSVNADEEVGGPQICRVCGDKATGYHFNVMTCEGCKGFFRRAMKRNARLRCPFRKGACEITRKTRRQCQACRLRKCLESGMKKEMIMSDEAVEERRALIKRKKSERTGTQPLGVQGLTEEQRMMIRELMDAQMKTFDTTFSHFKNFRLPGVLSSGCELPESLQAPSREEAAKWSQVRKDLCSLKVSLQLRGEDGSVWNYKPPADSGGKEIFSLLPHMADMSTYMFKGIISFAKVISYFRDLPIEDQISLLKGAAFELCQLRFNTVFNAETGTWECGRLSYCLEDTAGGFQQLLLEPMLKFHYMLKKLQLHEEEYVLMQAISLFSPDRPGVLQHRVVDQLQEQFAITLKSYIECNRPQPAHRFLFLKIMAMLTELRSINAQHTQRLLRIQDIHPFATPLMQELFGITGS
- EXPERIMENT NOTES: Human pregnane X receptor (PXR) small molecule agonists, qHTS assay (AID 1346982); also: % is scaled to controls: 0 for no effect and ±100 for the full control effect; nearly all actives have a fitted effect of over 35% in size
- APPLIED CONDITIONS: PXR-Luc HepG2, CYP3A4 luciferase reporter, 24 h; series mostly up to 92.4 µM
Inconclusive results are not listed. Activity calls are given as the source filed them. Calls come from the whole dose curve; as a rule, active = well fitted activation curve with a large enough effect in the repeat runs; inconclusive = weak or mixed curves; inactive = no such curve, though single readings can be large or run the other way.
QUANTITY KIND: outcome

COc1ccccc1OCC(O)CN1CCN(CC(=O)Nc2c(C)cccc2C)CC1 (stereo not drawn)
inactive
CC/C=C\CC/C=C/CO
inactive
CN1CCN(c2cc3c(cc2F)c(=O)c(C(=O)O)cn3-c2ccc(F)cc2)CC1
inactive
Cc1c(NC(C)C)c(=O)n(-c2ccccc2)n1C
inactive

Tell me its outcome given "C=C1CC[C@H]2C[C@@H]1C2(C)C" as the entry.
inactive

Tell me its outcome given "O=C(O)Cc1ccc(CCNS(=O)(=O)c2ccc(Cl)cc2)cc1" as the entry.
inactive

Tell me its outcome given "Cc1cnc(NS(=O)(=O)c2ccc(N)cc2)nc1" as the entry.
inactive

Tell me its outcome given NS(=O)(=O)c1cc2c(cc1Cl)NC(C1CC3C=CC1C3)NS2(=O)=O (stereo not drawn) as the entry.
inactive

Tell me its outcome given "CCC=O" as the entry.
inactive

Tell me its outcome given CO[Si](CCCOCC1CO1)(OC)OC (stereo not drawn) as the entry.
inactive

Tell me its outcome given "C1CN(CCOCCN2CCOCC2)CCO1" as the entry.
inactive

Tell me its outcome given "O=S(O)CO" as the entry.
inactive

Tell me its outcome given "Cn1c(N)c(N=O)c(=O)n(C)c1=O" as the entry.
inactive
